viability, T/C values by entry
system: 362531-283-R-J2-PDC complex spheroid viability; assay: Anticancer human tumor 362531-283-R-J2-PDC patient-derived colon adenocarcinoma cell line growth inhibition [RAS]; details: second compound 0.0316 µM; first compound 0.316 µM; stronger effect = lower value

Worked cases, viability, T/C given:
- compound: "CCC(CC)c1cc(NC2CCC(N)C2)n2nccc2n1 (configuration not stated) + C#Cc1c(F)ccc2cc(O)cc(-c3ncc4c(N5CC6CCC(C5)N6)nc(OCC56CCCN5CC(F)C6)nc4c3F)c12"
  viability, T/C: "99.9%"
- compound: "CC(=O)OC12COC1CC(O)C1(C)C(=O)C(O)C3=C(C)C(OC(=O)C(O)C(NC(=O)OC(C)(C)C)c4ccccc4)CC(O)(C(OC(=O)c4ccccc4)C21)C3(C)C (configuration not stated) + C#Cc1c(F)ccc2cc(O)cc(-c3ncc4c(N5CC6CCC(C5)N6)nc(OCC56CCCN5CC(F)C6)nc4c3F)c12"
  viability, T/C: "18.4%"
- compound: "CC(C)NCC(C(=O)N1CCN(c2ncnc3c2C(C)CC3O)CC1)c1ccc(Cl)cc1 (configuration not stated) + C=CC(=O)N1CCN(c2nc(OCC3CCCN3C)nc3c(F)c(-c4nc(N)cc(C)c4C(F)(F)F)c(Cl)cc23)C(C)C1"
  viability, T/C: "101%"

Consider the compound C[C@@H](NC(=O)c1ncnc(N)c1Cl)c1ncc(C(=O)Nc2cc(C(F)(F)F)c(Cl)cn2)s1 + C#Cc1c(F)ccc2cc(O)cc(-c3ncc4c(N5CC6CCC(C5)N6)nc(OCC56CCCN5CC(F)C6)nc4c3F)c12 and give its measured viability, T/C.
111%

Proceed to CC(Nc1ccc2c(c1)OCCn1cc(N3C(=O)OCC3C(F)F)nc1-2)C(N)=O (configuration not stated) + C#Cc1c(F)ccc2cc(O)cc(-c3ncc4c(N5CC6CCC(C5)N6)nc(OCC56CCCN5CC(F)C6)nc4c3F)c12
79%

Try this compound too: C=CC(=O)Nc1cc(Nc2nccc(-c3cn(C)c4ccccc34)n2)c(OC)cc1N(C)CCN(C)C + C=CC(=O)N1CCN(c2nc(OCC3CCCN3C)nc3c(F)c(-c4nc(N)cc(C)c4C(F)(F)F)c(Cl)cc23)C(C)C1
93.5%

Also C[C@@H](NC(=O)c1ncnc(N)c1Cl)c1ncc(C(=O)Nc2cc(C(F)(F)F)c(Cl)cn2)s1 + C=CC(=O)N1CCN(c2nc(OCC3CCCN3C)nc3c(F)c(-c4nc(N)cc(C)c4C(F)(F)F)c(Cl)cc23)C(C)C1 ?
98.6%

###

test system: 362531-283-R-J2-PDC complex spheroid viability; assay: Anticancer human tumor 362531-283-R-J2-PDC cell line growth inhibition [RAS]; conditions: second compound 10 µM; first compound 0.00316 µM; stronger effect = lower value;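 note: spheroids exposed to the agents for 7 days before readout; luminescence viability as percent of DMSO vehicle control wells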
Below: a set of entries, each annotated with reported viability, T/C.

Below are worked cases with known answers.
- compound: "CCN1CCN(Cc2ccc(Nc3ncc(F)c(-c4cc(F)c5nc(C)n(C(C)C)c5c4)n3)nc2)CC1 + C#Cc1c(F)ccc2cc(O)cc(-c3ncc4c(N5CC6CCC(C5)N6)nc(OCC56CCCN5CC(F)C6)nc4c3F)c12"
  viability, T/C: "45.2%"
- compound: "O=C(c1ccc(F)c(F)c1Nc1ccc(I)cc1F)N1CC(O)([C@@H]2CCCCN2)C1 + C#Cc1c(F)ccc2cc(O)cc(-c3ncc4c(N5CC6CCC(C5)N6)nc(OCC56CCCN5CC(F)C6)nc4c3F)c12"
  viability, T/C: "28%"
- compound: "C=CC(=O)N1CCN(c2nc(OCC3CCCN3C)nc3c(F)c(-c4nc(N)cc(C)c4C(F)(F)F)c(Cl)cc23)C(C)C1 (stereo unspecified) + C#Cc1c(F)ccc2cc(O)cc(-c3ncc4c(N5CC6CCC(C5)N6)nc(OCC56CCCN5CC(F)C6)nc4c3F)c12"
  viability, T/C: "39.9%"
- compound: "CC(C)n1nc(-c2ccc3oc(N)nc3c2)c2c(N)ncnc21 + C#Cc1c(F)ccc2cc(O)cc(-c3ncc4c(N5CC6CCC(C5)N6)nc(OCC56CCCN5CC(F)C6)nc4c3F)c12"
  viability, T/C: "34%"
- compound: "C=CC(=O)Nc1cc(Nc2nccc(-c3cn(C)c4ccccc34)n2)c(OC)cc1N(C)CCN(C)C + C#Cc1c(F)ccc2cc(O)cc(-c3ncc4c(N5CC6CCC(C5)N6)nc(OCC56CCCN5CC(F)C6)nc4c3F)c12"
  viability, T/C: "57.3%"

Next:
// lookup viability, T/C for Nc1ccn(C2OC(CO)C(O)C2(F)F)c(=O)n1 (stereo unspecified) + C#Cc1c(F)ccc2cc(O)cc(-c3ncc4c(N5CC6CCC(C5)N6)nc(OCC56CCCN5CC(F)C6)nc4c3F)c12
54.7%
